Target: recombinant rat GluN1/GluN2D (Rattus norvegicus, UniProt P35439+Q62645)
Construct: expressed in transfected cells; host or cells: Xenopus laevis oocytes injected with cRNA (GluN1:GluN2 ratio 1:2)
Sequence (Q62645 28-1323, other chains not shown): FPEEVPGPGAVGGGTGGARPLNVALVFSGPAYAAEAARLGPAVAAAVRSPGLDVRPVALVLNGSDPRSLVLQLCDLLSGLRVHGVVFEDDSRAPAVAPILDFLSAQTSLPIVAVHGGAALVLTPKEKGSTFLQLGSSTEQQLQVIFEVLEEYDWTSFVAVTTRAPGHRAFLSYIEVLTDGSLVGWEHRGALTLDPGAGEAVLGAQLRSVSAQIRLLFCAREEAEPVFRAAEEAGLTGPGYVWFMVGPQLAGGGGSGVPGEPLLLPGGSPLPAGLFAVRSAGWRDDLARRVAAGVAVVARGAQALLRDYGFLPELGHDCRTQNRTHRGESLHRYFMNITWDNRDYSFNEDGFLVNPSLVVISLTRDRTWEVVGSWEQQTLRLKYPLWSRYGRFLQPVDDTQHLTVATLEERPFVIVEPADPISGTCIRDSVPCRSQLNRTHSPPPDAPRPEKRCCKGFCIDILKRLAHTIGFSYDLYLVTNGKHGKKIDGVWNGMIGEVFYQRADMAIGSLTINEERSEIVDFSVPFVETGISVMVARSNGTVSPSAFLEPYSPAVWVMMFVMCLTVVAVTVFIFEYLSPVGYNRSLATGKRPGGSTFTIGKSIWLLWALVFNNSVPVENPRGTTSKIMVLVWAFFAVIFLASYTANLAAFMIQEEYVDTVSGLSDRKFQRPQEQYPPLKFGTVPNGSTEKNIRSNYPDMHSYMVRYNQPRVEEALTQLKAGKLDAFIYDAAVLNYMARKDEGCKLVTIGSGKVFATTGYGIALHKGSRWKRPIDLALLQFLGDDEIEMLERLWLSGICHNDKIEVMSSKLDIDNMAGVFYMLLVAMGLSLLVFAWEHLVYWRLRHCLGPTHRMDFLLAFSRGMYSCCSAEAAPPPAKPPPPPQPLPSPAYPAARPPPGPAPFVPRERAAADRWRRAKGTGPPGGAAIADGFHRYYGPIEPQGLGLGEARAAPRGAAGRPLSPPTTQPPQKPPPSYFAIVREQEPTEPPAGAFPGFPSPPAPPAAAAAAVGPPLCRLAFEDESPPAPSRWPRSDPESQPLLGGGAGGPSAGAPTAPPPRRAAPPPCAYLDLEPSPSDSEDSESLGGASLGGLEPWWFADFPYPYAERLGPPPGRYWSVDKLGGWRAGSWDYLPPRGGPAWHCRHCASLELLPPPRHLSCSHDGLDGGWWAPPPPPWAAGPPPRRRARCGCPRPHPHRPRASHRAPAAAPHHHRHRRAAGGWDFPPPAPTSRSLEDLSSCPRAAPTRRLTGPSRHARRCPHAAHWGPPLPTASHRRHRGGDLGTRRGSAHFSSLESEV
Experiment: Two-electrode voltage-clamp recordings in Xenopus laevis oocytes, GluN2D
Type: cell-based
Settings: oocytes, 100 μM glutamate and 30 μM glycine; read-out: GluN2D IC50
Catalogue of pIC50 values
Entry type: numeric. Quantity: pIC50, the -log10 of concentration in molar units.

Cc1ccc2[nH]c(=O)c(C3=NN(C(=O)C(F)(F)CC(=O)O)C(c4ccc(Cl)cc4)C3)c(-c3ccc(Cl)cc3)c2c1 (single isomer, unassigned; (-)) [(−)-997-90]; 6.89

Find pIC50 (recombinant rat GluN1/GluN2D (Rattus norvegicus, UniProt P35439+Q62645)) for the entry O=C(O)CC(F)(F)C(=O)N1N=C(c2ccccc2-c2ccc(Cl)cc2)CC1c1ccc(Cl)s1 (stereo not drawn) [997-118] 5.43

Find pIC50 (recombinant rat GluN1/GluN2D (Rattus norvegicus, UniProt P35439+Q62645)) for the entry O=C(CC(F)(F)CO)N1N=C(c2c(-c3ccc(Cl)cc3)c3ccccc3[nH]c2=O)CC1c1ccc(Cl)cc1 (single isomer, unassigned; (+)) [(+)-997-67] 5.44

====

Molecular target: recombinant rat GluN1/GluN2D (Rattus norvegicus, UniProt P35439+Q62645)
Construct: expressed in transfected cells; host or cells: Xenopus laevis oocytes injected with cRNA (GluN1:GluN2 ratio 1:2)
Experiment: Two-electrode voltage-clamp recordings in Xenopus laevis oocytes, GluN2D
Type: cell-based
Settings: oocytes, 100 μM glutamate and 30 μM glycine; read-out: GluN2D IC50
Method: All target compounds were evaluated for activity by the Traynelis laboratory at Emory University using two-electrode voltage-clamp recordings performed in Xenopus laevis oocytes expressing recombinant GluN2A-D subunits (Table 1). […] Two ester compounds 997-65 and 997-66 also performed no inhibition at GluN2A to GluN2D receptors. […]
pIC50: −log10 of the molar value.
Response key: true (1) means pIC50 >= 6; false (0) means pIC50 < 6.

Would you please look over these solved cases?
O=C(O)CC(F)(F)C(=O)N1N=C(c2ccccc2-c2ccc(F)c(Cl)c2)CC1c1ccc(Cl)cc1 (centres unmarked); false (0)
O=C(O)CCC(=O)N1N=C(c2c(-c3ccc(Cl)cc3)c3ccccc3[nH]c2=S)CC1c1ccc(Cl)cc1 (centres unmarked); true (1)
O=C(O)CC(F)(F)C(=O)N1N=C(c2ccccc2-c2ccc(Cl)cc2)CC1c1ccc(OC(F)(F)F)cc1 (centres unmarked); false (0)
O=C(O)CC(F)(F)C(=O)N1N=C(c2ccccc2-c2ccc(Cl)cc2)CC1c1ccc(F)cc1 (centres unmarked); false (0)
O=C(O)CCC(=O)N1N=C(c2c(-c3ccc(Cl)cc3)c3ccccc3[nH]c2=O)CC1c1ccc(Cl)nc1 (centres unmarked); false (0)

# bool: pIC50 of O=C(O)CC(F)(F)C(=O)N1N=C(c2c(-c3ccc(F)cc3)c3ccccc3[nH]c2=O)CC1c1ccc(F)cc1 (centres unmarked) >= 6 false (0)

# bool: pIC50 of Cc1ccc2[nH]c(=O)c(C3=NN(C(=O)C(F)(F)CC(=O)O)C(c4ccc(Cl)cc4)C3)c(-c3ccc(Cl)cc3)c2c1 (centres unmarked) [997-90] >= 6 true (1)

====

Biological target: recombinant rat GluN1/GluN2C (Rattus norvegicus, UniProt P35439+Q00961)
Construct: expressed in transfected cells; host or cells: Xenopus laevis oocytes injected with cRNA (GluN1:GluN2 ratio 1:2)
Sequence (Q00961 20-1237, other chains not shown): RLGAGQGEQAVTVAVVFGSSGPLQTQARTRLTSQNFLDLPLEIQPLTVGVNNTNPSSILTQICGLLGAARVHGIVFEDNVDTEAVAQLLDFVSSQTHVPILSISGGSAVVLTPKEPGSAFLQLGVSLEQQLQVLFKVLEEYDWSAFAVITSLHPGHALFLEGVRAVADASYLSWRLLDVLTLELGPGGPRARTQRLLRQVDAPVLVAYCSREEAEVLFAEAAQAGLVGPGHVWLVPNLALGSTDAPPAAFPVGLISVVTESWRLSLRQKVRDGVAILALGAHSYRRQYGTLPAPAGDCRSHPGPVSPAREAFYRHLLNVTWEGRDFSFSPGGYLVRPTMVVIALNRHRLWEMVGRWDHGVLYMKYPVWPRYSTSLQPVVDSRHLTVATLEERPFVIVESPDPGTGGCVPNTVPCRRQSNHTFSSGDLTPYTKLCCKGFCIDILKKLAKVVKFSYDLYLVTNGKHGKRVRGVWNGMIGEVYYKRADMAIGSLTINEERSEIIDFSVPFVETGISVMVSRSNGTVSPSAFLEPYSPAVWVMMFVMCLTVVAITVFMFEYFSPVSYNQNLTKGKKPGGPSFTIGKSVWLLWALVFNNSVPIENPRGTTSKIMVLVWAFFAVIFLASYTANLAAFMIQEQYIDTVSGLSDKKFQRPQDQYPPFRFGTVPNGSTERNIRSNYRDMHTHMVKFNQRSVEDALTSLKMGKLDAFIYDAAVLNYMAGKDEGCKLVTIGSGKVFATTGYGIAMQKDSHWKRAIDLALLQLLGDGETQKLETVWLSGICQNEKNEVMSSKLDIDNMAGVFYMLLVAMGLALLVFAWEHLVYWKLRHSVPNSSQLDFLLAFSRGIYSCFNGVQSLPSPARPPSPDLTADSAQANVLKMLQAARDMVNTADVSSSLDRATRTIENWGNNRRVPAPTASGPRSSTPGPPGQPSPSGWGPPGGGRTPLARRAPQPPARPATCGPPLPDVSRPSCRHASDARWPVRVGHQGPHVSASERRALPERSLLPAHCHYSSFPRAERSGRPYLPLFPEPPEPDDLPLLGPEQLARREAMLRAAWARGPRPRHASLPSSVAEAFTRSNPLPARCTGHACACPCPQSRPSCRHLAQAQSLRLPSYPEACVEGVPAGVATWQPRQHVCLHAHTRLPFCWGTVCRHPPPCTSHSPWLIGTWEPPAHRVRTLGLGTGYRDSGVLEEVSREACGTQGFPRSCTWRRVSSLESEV
Test: Two-electrode voltage-clamp recordings in Xenopus laevis oocytes, GluN2C
Assay type: cell-based
Details: oocytes, 100 μM glutamate and 30 μM glycine; read-out: GluN2C IC50
readout-kind: IC50 (nM)
Reply with just the number (in nM).

Solved entries (count: 2):
O=C(O)CC(F)(F)C(=O)N1N=C(c2c(-c3ccc(F)cc3)c3cc(F)ccc3[nH]c2=O)CC1c1ccc(Cl)cc1 (stereo not drawn); 1000
O=C(O)CC(F)(F)C(=O)N1N=C(c2c(-c3ccc(Cl)cc3)c3ccccc3[nH]c2=O)CC1c1ccc(Cl)s1 (stereo not drawn); 430

Quick one: IC50 for O=C(CC(F)(F)CO)N1N=C(c2c(-c3ccc(Cl)cc3)c3ccccc3[nH]c2=O)CC1c1ccc(Cl)cc1 (single isomer, unassigned; (+)) [(+)-997-67] ? 8500

====

Target: recombinant rat GluN1/GluN2D (Rattus norvegicus, UniProt P35439+Q62645)
Construct: expressed in transfected cells; host or cells: Xenopus laevis oocytes injected with cRNA (GluN1:GluN2 ratio 1:2)
Assay: Two-electrode voltage-clamp recordings in Xenopus laevis oocytes, GluN2D
Assay type: cell-based
Details: GluN2C and GluN2D receptors; read-out: IC50 values at GluN2C and GluN2D receptors, range over the alcohol compounds
Method: All target compounds were evaluated for activity by the Traynelis laboratory at Emory University using two-electrode voltage-clamp recordings performed in Xenopus laevis oocytes expressing recombinant GluN2A-D subunits (Table 1). […] Two ester compounds 997-65 and 997-66 also performed no inhibition at GluN2A to GluN2D receptors. […]
pIC50: −log10 of the molar value.
readout-kind: pIC50

Solved entries (count: 2):
O=C(CC(F)(F)CO)N1N=C(c2c(-c3ccc(Cl)cc3)c3ccccc3[nH]c2=O)CC1c1ccc(Cl)cc1 (stereo not drawn); 5.70 to 6.10
O=C(CC(F)(F)CO)N1N=C(c2c(-c3cccc(F)c3)c3ccccc3[nH]c2=O)CC1c1ccc(Cl)cc1 (stereo not drawn); 5.70 to 6.10

Find pIC50 (recombinant rat GluN1/GluN2D (Rattus norvegicus, UniProt P35439+Q62645)) for the entry O=C(N1N=C(c2c(-c3ccc(Cl)cc3)c3ccccc3[nH]c2=O)CC1c1ccc(Cl)cc1)C(F)(F)CCO (stereo not drawn) 5.70 to 6.10

====

Target: recombinant rat GluN1/GluN2C (Rattus norvegicus, UniProt P35439+Q00961)
Construct: expressed in transfected cells; host or cells: Xenopus laevis oocytes injected with cRNA (GluN1:GluN2 ratio 1:2)
Assay: Two-electrode voltage-clamp recordings in Xenopus laevis oocytes, GluN2C
Type: cell-based
Settings: oocytes, 100 μM glutamate and 30 μM glycine; read-out: GluN2C IC50
readout-kind: pIC50
Entry type: numeric. Quantity: pIC50, the -log10 of concentration in molar units.

Solved entries (count: 3):
O=C(O)CC(F)(F)C(=O)N1N=C(c2ccccc2-c2ccc(Cl)cc2)CC1c1ccc(OC(F)(F)F)cc1 (stereo not shown); 5.46
O=C(O)CC(F)(F)C(=O)N1N=C(c2c(-c3ccc(Cl)cc3)c3ccccc3[nH]c2=O)CC1c1ccc(C(F)(F)F)cc1 (stereo not shown); 6.77
O=c1[nH]c2ccccc2c(-c2ccc(Cl)cc2)c1C1=NNC(c2ccncc2)C1 (stereo not shown); 4.70

Let's switch to this compound now.
Quick one: pIC50 for O=C(O)CC(F)(F)C(=O)N1N=C(c2c(-c3ccc(Cl)cc3)c3ccccc3[nH]c2=O)C[C@@H]1c1ccc(Cl)cc1 [(+)-997-74] ? 5.47

====

Target: recombinant rat GluN1/GluN2A (Rattus norvegicus, UniProt P35439+Q00959)
Sequence (Q00959 23-1464, other chains not shown): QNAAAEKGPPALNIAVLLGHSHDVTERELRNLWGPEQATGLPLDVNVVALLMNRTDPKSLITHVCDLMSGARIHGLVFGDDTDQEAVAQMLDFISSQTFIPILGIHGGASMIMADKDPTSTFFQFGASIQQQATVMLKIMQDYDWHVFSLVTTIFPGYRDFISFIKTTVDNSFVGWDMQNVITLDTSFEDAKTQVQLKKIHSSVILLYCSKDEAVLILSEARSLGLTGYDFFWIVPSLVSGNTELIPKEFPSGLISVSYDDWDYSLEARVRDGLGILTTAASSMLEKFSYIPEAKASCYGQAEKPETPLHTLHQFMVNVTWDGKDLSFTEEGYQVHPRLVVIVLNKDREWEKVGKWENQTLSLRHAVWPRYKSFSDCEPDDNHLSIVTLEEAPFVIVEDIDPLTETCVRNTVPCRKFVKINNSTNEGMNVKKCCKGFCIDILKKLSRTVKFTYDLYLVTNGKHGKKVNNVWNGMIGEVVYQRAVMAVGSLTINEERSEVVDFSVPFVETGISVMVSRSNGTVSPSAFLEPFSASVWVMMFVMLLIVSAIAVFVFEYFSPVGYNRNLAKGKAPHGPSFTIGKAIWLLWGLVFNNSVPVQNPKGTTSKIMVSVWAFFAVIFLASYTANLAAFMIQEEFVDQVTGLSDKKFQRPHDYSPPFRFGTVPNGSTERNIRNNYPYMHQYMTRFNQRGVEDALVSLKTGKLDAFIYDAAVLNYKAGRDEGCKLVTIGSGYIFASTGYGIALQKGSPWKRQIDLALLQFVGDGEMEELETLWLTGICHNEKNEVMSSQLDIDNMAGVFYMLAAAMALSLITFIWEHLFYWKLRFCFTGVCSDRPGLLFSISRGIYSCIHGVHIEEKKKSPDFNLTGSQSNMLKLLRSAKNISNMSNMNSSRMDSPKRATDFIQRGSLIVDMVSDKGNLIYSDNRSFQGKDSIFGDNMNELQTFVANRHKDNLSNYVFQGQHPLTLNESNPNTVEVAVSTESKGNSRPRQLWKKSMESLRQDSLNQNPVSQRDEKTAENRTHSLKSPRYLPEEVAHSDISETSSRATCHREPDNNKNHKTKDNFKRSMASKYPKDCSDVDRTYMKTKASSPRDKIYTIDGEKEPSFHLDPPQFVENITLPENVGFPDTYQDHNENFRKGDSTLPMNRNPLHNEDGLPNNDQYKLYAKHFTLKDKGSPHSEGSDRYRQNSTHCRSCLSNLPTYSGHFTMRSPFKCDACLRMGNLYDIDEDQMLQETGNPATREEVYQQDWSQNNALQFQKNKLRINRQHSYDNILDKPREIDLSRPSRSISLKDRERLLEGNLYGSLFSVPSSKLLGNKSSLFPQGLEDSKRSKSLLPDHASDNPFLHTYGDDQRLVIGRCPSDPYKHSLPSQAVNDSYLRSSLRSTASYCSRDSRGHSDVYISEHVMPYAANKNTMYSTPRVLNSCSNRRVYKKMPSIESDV
Assay: Two-electrode voltage-clamp recordings in Xenopus laevis oocytes, GluN2A
Details: oocytes, 100 μM glutamate and 30 μM glycine
Protocol: All target compounds were evaluated for activity by the Traynelis laboratory at Emory University using two-electrode voltage-clamp recordings performed in Xenopus laevis oocytes expressing recombinant GluN2A-D subunits (Table 1). […] Two ester compounds 997-65 and 997-66 also performed no inhibition at GluN2A to GluN2D receptors. […]
pIC50: −log10 of the molar value.
Response key: t means pIC50 >= 5; f means pIC50 < 5.

Would you please look over these solved cases?
O=C(CC(F)(F)C(=O)O)N1N=C(c2c(-c3ccc(Cl)cc3)c3ccccc3[nH]c2=O)CC1c1ccc(Cl)cc1 (stereo not shown); t
O=C(O)CCC(=O)N1N=C(c2c(-c3ccc(Cl)cc3)c3ccccc3[nH]c2=O)CC1c1ccc(Cl)s1 (stereo not shown); f
O=C(O)CC(F)(F)C(=O)N1N=C(c2c(-c3ccc(Cl)cc3)c3ccccc3[nH]c2=O)CC1c1ccc(F)cc1 (stereo not shown); f

Now take the following compound into account.
# bool: pIC50 of O=C(O)CC(F)(F)C(=O)N1N=C(c2ccccc2-c2ccc(Cl)cc2)CC1c1ccc(OC(F)(F)F)cc1 (stereo not shown) >= 5 f

====

Biological target: recombinant rat GluN1/GluN2D (Rattus norvegicus, UniProt Q62645)
Construct: expressed in transfected cells; host or cells: Xenopus laevis oocytes injected with cRNA (GluN1:GluN2 ratio 1:2)
Sequence (Q62645 28-1323, other chains not shown): as the sequence (Q62645 28-1323, other chains not shown) above
Assay: Two-electrode voltage-clamp recordings in Xenopus laevis oocytes, GluN2D
Type: cell-based
Details: ratio of IC50 values
Response key: met means 2B IC50 / 2D IC50 >= 100; not met means 2B IC50 / 2D IC50 < 100.

Would you please look over these solved cases?
O=C(CC(F)(F)C(=O)O)N1N=C(c2c(-c3cccc(F)c3)c3ccccc3[nH]c2=O)CC1c1ccc(Cl)cc1 (stereo not drawn) [997-69]; not met
O=C(O)CC(F)(F)C(=O)N1N=C(c2c(-c3ccc(Cl)cc3)c3ccccc3[nH]c2=O)CC1c1ccc(Cl)cc1 (stereo not drawn) [997-74]; met
O=C(O)CC(F)(F)C(=O)N1N=C(c2c(-c3ccc(Cl)cc3)c3ccccc3[nH]c2=O)CC1c1ccc(Cl)s1 (stereo not drawn) [997-110]; met
O=C(O)CC(F)(F)C(=O)N1N=C(c2c(-c3ccc(Cl)cc3)c3ccccc3[nH]c2=O)CC1c1ccc(F)cc1 (stereo not drawn) [997-104]; not met
O=C(O)CC(F)(F)C(=O)N1N=C(c2ccccc2-c2ccc(Cl)cc2)CC1c1ccc(F)cc1 (stereo not drawn) [997-116]; not met
O=C(O)CC(F)(F)C(=O)N1N=C(c2c(-c3ccc(Cl)cc3)c3ccccc3[nH]c2=O)CC1c1ccc(C(F)(F)F)cc1 (stereo not drawn) [997-113]; not met
O=C(O)/C=C(/F)C(=O)N1N=C(c2c(-c3ccc(Cl)cc3)c3ccccc3[nH]c2=O)CC1c1ccc(Cl)cc1 (stereo not drawn) [997-101]; met

# bool: 2B IC50 / 2D IC50 of O=C(O)CC(F)(F)C(=O)N1N=C(c2ccccc2-c2ccc(Cl)cc2)CC1c1ccc(OC(F)(F)F)cc1 (stereo not drawn) [997-117] >= 100 not met
